Test system: CSNK1G3;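 further: KINOMEscan kinase panel screen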
TEST CONDITIONS: concentration: 1 μM, replicates: in singlicate; n = 1
A collection of compounds and their measured %Inh
RECORDED METRIC: %Inh (%)

1. Nc1nc(-c2nccs2)c(-c2ccnc3ccccc23)s1 [GW693542]; 24
2. COc1ccc2nc(-c3cccc(C)n3)nc(Nc3ccncc3)c2c1 [GSK204919]; 7
3. O=C(Nc1n[nH]c2cc(-c3cccc(F)c3F)ccc12)C1CC1 [SB-733894]; 0
4. Cc1nnc(-c2ccc3occ(-c4ccc(S(C)=O)cc4)c3c2)[nH]1 (stereo not shown); 0
5. Fc1cccc(COc2nnc(-c3ccc4c(c3)CCO4)o2)c1; 0
6. Clc1cc(Cl)cc(Nc2ccnc(Nc3cc(Cl)cc(Cl)c3)n2)c1 [GSK175726]; 9
7. CC(C)(C)c1ccc(C(=O)Nc2cn3cc(-c4cccnc4)ccc3n2)cc1; 21
8. CN1C(=O)C(Nc2ccc(Cl)c(C(=O)O)c2)=C(c2ccc(Cl)cc2)C1=O [SB-404290]; 15
9. Cn1ccc2ncnc(Oc3ccc(Nc4nc5ccccc5[nH]4)cc3)c21; 0
10. Cl.O=C(Nc1cccc(-c2nn3ncccc3c2-c2ccnc(Nc3cccnc3)n2)c1)c1c(F)cccc1F [GSK312879]; 15
11. COC(=O)c1c(-c2ccccc2)c2cc(OC)ccc2c(=O)n1Cc1ccccc1; 0
12. Fc1cc(Cl)ccc1Nc1ccnc2cc(I)ccc12 [GW551191]; 20
13. Cc1ccc(NC(=O)Nc2cccc(Cl)c2)cc1-c1ccc(C(=O)Nc2ccncc2)cc1 [GSK1398468]; 25
14. C[C@@H]1CCCCN1c1cc(-c2ccc3c(N)n[nH]c3c2)nc(N)n1 [GSK2258759]; 26
15. Cc1cccc(-c2nc(Nc3ccc4[nH]ncc4c3)c3ccccc3n2)n1 [GW857175]; 18
16. Cn1ccc2ncnc(Oc3ccc(NC(=O)Nc4ccccc4)cc3)c21; 0
17. CC(C)(C)c1ccc(C(=O)Nc2cn3cc(Cl)ccc3n2)cc1; 0
18. COc1cc2ncnc(Nc3ccc4nc(-c5ccccc5)[nH]c4c3)c2cc1OC.Cl [GW282450]; 17
19. Cc1cc(-c2ccc3c(c2)CC[C@@H](N[C@@H](C)c2ccccc2)C3)cnc1N.Cl [GW412617]; 8
